Provide the recorded Percent Effect for the entries that follow.
SYSTEM_TESTED: Tyrosyl-tRNA synthetase, putative (Trypanosoma cruzi (strain CL Brener)) (UniProt Q4DSP6)
Sequence (Q4DSP6 as listed by the source): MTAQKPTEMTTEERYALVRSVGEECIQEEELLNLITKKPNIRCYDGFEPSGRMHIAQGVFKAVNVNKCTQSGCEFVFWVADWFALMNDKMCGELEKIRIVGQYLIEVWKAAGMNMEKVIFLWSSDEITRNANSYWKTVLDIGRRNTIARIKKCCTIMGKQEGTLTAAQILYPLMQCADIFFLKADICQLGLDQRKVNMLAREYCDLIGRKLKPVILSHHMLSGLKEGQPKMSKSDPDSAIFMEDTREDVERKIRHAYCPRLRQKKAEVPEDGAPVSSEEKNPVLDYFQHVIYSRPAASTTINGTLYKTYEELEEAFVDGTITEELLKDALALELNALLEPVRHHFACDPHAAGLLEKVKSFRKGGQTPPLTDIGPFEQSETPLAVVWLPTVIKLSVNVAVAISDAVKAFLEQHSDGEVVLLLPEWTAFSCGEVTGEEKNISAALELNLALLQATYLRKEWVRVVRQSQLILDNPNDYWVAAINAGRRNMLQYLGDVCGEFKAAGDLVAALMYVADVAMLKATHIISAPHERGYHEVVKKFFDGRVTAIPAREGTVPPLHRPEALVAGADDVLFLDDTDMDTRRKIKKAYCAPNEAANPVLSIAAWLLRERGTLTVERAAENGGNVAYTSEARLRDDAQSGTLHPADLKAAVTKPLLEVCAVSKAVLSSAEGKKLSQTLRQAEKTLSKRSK
TEST_DESCRIPTION: Trypanosoma cruzi tyrosyl tRNA synthetase (TcYRS) SOP
Assay type: functional
Design: scale not given: direction of the effect not stated beside the values
TEST_SETTINGS: 30 µM
The figure you give is taken to be in %; do not add the unit.

Entry COCCN1CCN(Cc2noc(C3CC3)n2)CC1C (centres undefined) , Percent Effect reported as 11.4

Entry `COCCOc1ncccc1CNCc1c(C)nn(C)c1N(C)C` , Percent Effect reported as 6.17

Entry O=C(CCNc1ncccn1)N1CCCC(n2ccnc2)C1 (centres undefined) , Percent Effect reported as 15.2

Entry `Cc1cccc(C)c1NC(=O)CCNC(=O)c1ccoc1` , Percent Effect reported as 14.1

Entry `CC(=O)N1CCN(C(=O)CN2CCc3c(ncn3C3CC3)C2)CC1` , Percent Effect reported as 5.06

Entry `Cc1ccc(-n2nnc(C(=O)NS(C)(=O)=O)c2C2CC2)cc1` , Percent Effect reported as 13.4

Entry c1ccc(N2CCOC3(CCCN(c4nncs4)C3)C2)nc1 (centres undefined) , Percent Effect reported as 8.97

Entry `CSc1nccn1-c1cccc(C(=O)NCc2nnc(C)n2C)c1` , Percent Effect reported as 23.5

Entry `CN1CCN(c2ncccc2CNc2ncccc2C#N)CC1` , Percent Effect reported as 13.6

Entry `O=C(c1ccccn1)N1CCN(c2ccc(-c3cccnc3)nn2)CC1` , Percent Effect reported as 10

Entry `CC(C)n1c(=O)nc2n1C(=O)N(c1ccc(F)cc1)C2` , Percent Effect reported as 7.79

Entry O=C(CCc1cnn(-c2ccccc2)c1)N1CCCC(n2cccn2)C1 (centres undefined) , Percent Effect reported as 17.1

Entry `Cc1ccc(Cn2ccc(NS(C)(=O)=O)n2)cc1` , Percent Effect reported as 13.6

Entry `Cc1sc(NC(=O)CN(C)S(C)(=O)=O)c(C#N)c1C` , Percent Effect reported as 8.97

Entry c1cncc(CN2CCc3ncnc(C4CCOC4)c3CC2)c1 (centres undefined) , Percent Effect reported as 6.41

Entry c1csc(-c2nc(CN3CCOC(Cn4cccn4)C3)co2)c1 (centres undefined) , Percent Effect reported as 23.5

Entry CC(C)c1nc(C2CCCN(C(=O)c3ccc4nccn4c3)C2)no1 (centres undefined) , Percent Effect reported as 7.06

Entry `Cn1cc(C(=O)NC2CCN(C(=O)NCC3CCSCC3)CC2)cn1` , Percent Effect reported as 15.2

Entry CC(NC(=O)NCCCc1n[nH]c(N)c1C#N)c1cccs1 (centres undefined) , Percent Effect reported as 24.1

Entry `CC(C)Cc1cc(NC(=O)c2ccc[nH]2)n(C)n1` , Percent Effect reported as 14.6

Entry `Cc1noc(C2CCN(Cc3cc(=O)n(C)c(=O)n3C)CC2)n1` , Percent Effect reported as 12.8

Entry `Cc1ccc(C(=O)NCCS(C)(=O)=O)c(=O)[nH]1` , Percent Effect reported as 15.8

Entry `Cc1ncsc1-c1nnc(C2CCN(CC3CCCCC3)CC2)o1` , Percent Effect reported as 5

Entry `CCNC(=O)N1CCN(Cc2nc3ccccc3[nH]2)[C@@H]2CS(=O)(=O)C[C@@H]21` , Percent Effect reported as 11.1
